- studySystem: GABAA receptor ([35S]-TBPS binding, rat brain cortical membranes)
- runDescription: Steroid inhibition of [35S]-TBPS binding
- testSettings: 3 nM [35S]-TBPS, in the presence of 5 mM GABA
Reported IC50 by item:

For orientation, consider the following solved cases.
COC[C@@]1(O)CC[C@@]2(C)[C@H](CC[C@@H]3[C@@H]2CC[C@]2(C)[C@@H](C(=O)CCn4cc(C#N)cn4)CC[C@@H]32)C1 | < 100 nM
C[C@@]1(O)CC[C@H]2[C@H](CC[C@@H]3[C@@H]2CC[C@]2(C)[C@@H](CC(=O)Cn4cc(C#N)cn4)CC[C@@H]32)C1 | 100 to 1000 nM

Consider now this further compound.
Exercise: What IC50 value was documented for this compound, C[C@H](C(=O)C[C@H]1CC[C@H]2[C@@H]3CC[C@@H]4C[C@](C)(O)CC[C@@H]4[C@H]3CC[C@]12C)n1cc(C#N)cn1 ?
Key: 100 to 1000 nM

====

- studySystem: GABAA receptor ([35S]-TBPS binding, rat brain cortical membranes)
- runDescription: Steroid inhibition of [35S]-TBPS binding
- testSettings: 3 nM [35S]-TBPS, in the presence of 5 mM GABA
- Procedure: [35S]-t-Butylbicyclophosphorothionate (TBPS) binding assays using rat brain cortical membranes in the presence of 5 mM GABA has been described (Gee et al, J. Pharmacol. Exp. Ther. 1987, 241, 346-353; Hawkinson et al, Mol. Pharmacol. 1994, 46, 977-985; Lewin, A. H et al., Mol. Pharmacol. 1989, 35, 189-194). Briefly, cortices are rapidly removed following decapitation of carbon dioxide-anesthetized Sprague-Dawley rats (200-250 g). […]
Quick reference: IC50 of the listed items.

C[C@@H](C(=O)C[C@H]1CC[C@H]2[C@@H]3CC[C@@H]4C[C@](C)(O)CC[C@@H]4[C@H]3CC[C@]12C)n1cc(C#N)cn1 | 100 to 1000 nM

Exercise: Requested field: IC50. Item: C[C@@H](C(=O)Cn1cc(C#N)cn1)[C@H]1CC[C@H]2[C@@H]3CC[C@@H]4C[C@](C)(O)CC[C@@H]4[C@H]3CC[C@]12C
Key: 100 to 1000 nM

Exercise: Look up IC50: CC(C)(C(=O)C[C@H]1CC[C@H]2[C@@H]3CC[C@@H]4C[C@](C)(O)CC[C@@H]4[C@H]3CC[C@]12C)n1cc(C#N)cn1
Key: 100 to 1000 nM

Exercise: Which measured IC50 value corresponds to C[C@@]1(O)CC[C@H]2[C@H](CC[C@@H]3[C@@H]2CC[C@]2(C)[C@@H](C(=O)CCCn4cc(C#N)cn4)CC[C@@H]32)C1 ?
Key: < 100 nM

Exercise: Give its IC50 value. Item: COC[C@@]1(O)CC[C@H]2[C@@H](CC[C@@H]3[C@@H]2CC[C@]2(C)[C@@H](C(=O)CCn4cc(C#N)cn4)CC[C@@H]32)C1
Key: < 100 nM

Exercise: # input compound: C[C@@]1(O)CC[C@H]2[C@@H](CC[C@@H]3[C@@H]2CC[C@]2(C)[C@@H](C(=O)CCn4cc(C#N)cn4)CC[C@@H]32)C1 ; wanted: its IC50
Key: < 100 nM

Exercise: Reported IC50 for C[C@H](C(=O)Cn1cc(C#N)cn1)[C@H]1CC[C@H]2[C@@H]3CC[C@@H]4C[C@](C)(O)CC[C@@H]4[C@H]3CC[C@]12C : what is it?
Key: < 100 nM

Exercise: Name the recorded IC50 for C[C@@]1(O)CC[C@H]2[C@H](CC[C@@H]3[C@@H]2CC[C@]2(C)[C@@H](CC(=O)c4ccc(C#N)cc4)CC[C@@H]32)C1 .
Key: < 100 nM

Exercise: # get_value(readout='IC50', item= C[C@@]1(O)CC[C@H]2[C@H](CC[C@@H]3[C@@H]2CC[C@]2(C)[C@@H](C(=O)CCCCn4cc(C#N)cn4)CC[C@@H]32)C1 )
Key: < 100 nM
